system: diaphorase; assay: fluorescently labeled diaphorase binding to peptide array with or without excess FAD; conditions: 10 micromolar labeled diaphorase, excess FAD present; 65535 is detector saturation
Listed sequences paired with reported 10 microM FAD (array fluorescence of bound diaphorase)
parameter: 10 microM FAD (array fluorescence of bound diaphorase)

monomer_sequence="YSALFGLQEDGSG [array peptide with C-terminal GSG linker]" reported_measurement=16872.25
monomer_sequence="FQFGKVVSDGSG [array peptide with C-terminal GSG linker]" reported_measurement=20187.75
monomer_sequence="RYPWNKLYKFDGSG [array peptide with C-terminal GSG linker]" reported_measurement=53014.5
monomer_sequence="EGYANKLLALFSGSG [array peptide with C-terminal GSG linker]" reported_measurement=10408.25
monomer_sequence="YRFQSGLPAKDGSG [array peptide with C-terminal GSG linker]" reported_measurement=20226.25

====

Test system: diaphorase
Experiment: fluorescently labeled diaphorase binding to peptide array with or without excess FAD
Settings: 1 micromolar labeled diaphorase, no FAD; 65535 is detector saturation
Description: Measurements were performed in which diaphorase was bound to an array of about 126,000 unique sequences. The sequences were chosen simply to cover sequence space. 16 of the natural 20 amino acids were used to make up these sequences with C, I, M and T omitted. The diaphorase was fluorescently labeled and each peptide sequence feature was scanned and fluorescence recorded on the array. Diaphorase bound tightly to some peptides and not at all to others. […]
Listed sequences paired with reported 1 micro no FAD (array fluorescence of bound diaphorase)
parameter: 1 micro no FAD (array fluorescence of bound diaphorase)

monomer_sequence="YRLNLKHPVGGSG [array peptide with C-terminal GSG linker]" reported_measurement=12652.75
monomer_sequence="RYYPAFSGGSG [array peptide with C-terminal GSG linker]" reported_measurement=21898
monomer_sequence="VKDGNKHYWRVSGSG (VKDGANKHYWRVSGSG) [array peptide with C-terminal GSG linker]" reported_measurement=2221
monomer_sequence="LAKQNRVEDGSS (LAKQNRVEDGSG) [array peptide with C-terminal GSG linker]" reported_measurement=770.5
